Molecular target: the molecule itself
Assay: SEC-MALS; 2 mg/mL (86-93 µM) Prx in 50 mM HEPES pH 7.5, 100 mM NaCl; TSK Gel 4000 SW; reduced samples with 10 mM DTT, oxidized samples with 1.2 equivalents of H2O2
Readout name: stoichiometry N
Form field (numeric): enter value without unit.

>>> observed("human peroxiredoxin 2, wild type (enzyme, UniProt P32119 1-198, looked up, peroxiredoxin 2 (Prx2), human; Stored in the disulfide-bonded form; run on SEC-MALS reduced (10 mM DTT) or oxidized (1.2 equivalents of H2O2); In the repair assay the protein was hyperoxidized (CP-SO2H); also called Prx2; WT Prx2; copies: 10) MASGNARIGKPAPDFKATAVVDGAFKEVKLSDYKGKYVVLFFYPLDFTFVCPTEIIAFSNRAEDFRKLGCEVLGVSVDSQFTHLAWINTPRKEGGLGPLNIPLLADVTRRLSEDYGVLKTDEGIAYRGLFIIDGKGVLRQITVNDLPVGRSVDEALRLVQAFQYTDEHGEVCPAGWKPGSDTIKPNVDDSKEYFSKHN")
10

Given item human peroxiredoxin 3, wild type (enzyme, UniProt P30048 62-256, looked up, peroxiredoxin 3 (Prx3), mitochondrial, human; In the repair assay the protein was hyperoxidized (CP-SO2H); also called Prx3; WT Prx3; copies: 12) APAVTQHAPYFKGTAVVNGEFKDLSLDDFKGKYLVLFFYPLDFTFVCPTEIVAFSDKANEFHDVNCEVVAVSVDSHFSHLAWINTPRKNGGLGHMNIALLSDLTKQISRDYGVLLEGSGLALRGLFIIDPNGVIKHLSVNDLPVGRSVEETLRLVKAFQYVETHGEVCPANWTPDSPTIKPSPAASKEYFQKVNQ , the value recorded as its stoichiometry N is 12

Value of stoichiometry N reported for the protein human peroxiredoxin 3 Ser139Glu/Ala142Glu, engineered dimer (enzyme, UniProt P30048 62-256, looked up, peroxiredoxin 3 (Prx3), mitochondrial, human; Vector pET15b; His tag removed with thrombin; In the repair assay the protein was about 20% hyperoxidized; also called Prx3-S139E/A142E; Prx3-EE; source: E. coli BL21Gold (DE3), purified (HisPur Cobalt, Q-Sepharose, Superdex 200); not shown: His tag, N-terminal, cleaved) APAVTQHAPYFKGTAVVNGEFKDLSLDDFKGKYLVLFFYPLDFTFVCPTEIVAFSDKANEFHDVNCEVVAVSVDSHFEHLEWINTPRKNGGLGHMNIALLSDLTKQISRDYGVLLEGSGLALRGLFIIDPNGVIKHLSVNDLPVGRSVEETLRLVKAFQYVETHGEVCPANWTPDSPTIKPSPAASKEYFQKVNQ is 2

Hey, just so you know, these numbers are from paper PMC8230665.
